Values from the supplement of paper PMC9233669

# System: biotinyl-Trp-oxazolone
# assay protocol: self-aminoacylation, catalytic enhancement (BWO) (fold over background); higher = more active; k-Seq, kA / k0A0; sequences stand for … in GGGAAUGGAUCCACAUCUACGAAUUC…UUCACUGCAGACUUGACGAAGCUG
This sample holds only a part of the variants without activity.
measure name: self-aminoacylation
When you answer, write just the number.

Below, each entry is followed by its recorded self-aminoacylation result.
sequence data	self-aminoacylation
AUUCACCUAGGUCCUUGGGUG [Fam2.2 aminoacylation ribozyme variant]	3.42
GUUCCCCUAGGUCAUCGGGUG [Fam2.2 aminoacylation ribozyme variant]	12.1
AUCACCGUGGUCAUCGAGUGA [Fam2.1 aminoacylation ribozyme variant]	7.75
AGGUUUGCUAAUAGUCGCGAG [Fam3.1 aminoacylation ribozyme variant]	2.59

Now let's try a different one.
Exam item: Could you tell me which self-aminoacylation is on file for CGACUUCAAAGAAUCGGUCUG [Fam1A.1 aminoacylation ribozyme variant] ?
Marked response: 7.38
